Molecular target: E. coli NDH-1 NuoD mutant E308D (Escherichia coli, UniProt P0AFD4+P33599, E308D)
Sequence (P33599 whole entry E308D): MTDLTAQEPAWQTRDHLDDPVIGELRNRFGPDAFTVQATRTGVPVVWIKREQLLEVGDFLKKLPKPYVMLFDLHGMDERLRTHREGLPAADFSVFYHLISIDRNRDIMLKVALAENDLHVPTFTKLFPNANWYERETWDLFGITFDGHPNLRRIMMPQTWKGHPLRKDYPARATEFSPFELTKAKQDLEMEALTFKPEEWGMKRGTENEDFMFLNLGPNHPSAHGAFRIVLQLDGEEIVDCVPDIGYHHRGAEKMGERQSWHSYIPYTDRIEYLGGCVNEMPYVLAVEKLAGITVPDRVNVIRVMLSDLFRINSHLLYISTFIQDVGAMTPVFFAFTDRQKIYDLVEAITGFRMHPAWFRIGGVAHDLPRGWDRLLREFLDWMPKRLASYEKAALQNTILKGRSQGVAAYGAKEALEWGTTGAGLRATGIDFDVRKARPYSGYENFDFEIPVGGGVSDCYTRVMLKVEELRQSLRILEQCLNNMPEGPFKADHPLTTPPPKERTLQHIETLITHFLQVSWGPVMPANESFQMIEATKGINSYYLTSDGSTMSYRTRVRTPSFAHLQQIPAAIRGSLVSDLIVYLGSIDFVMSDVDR
Sequence (P0AFD4 whole entry): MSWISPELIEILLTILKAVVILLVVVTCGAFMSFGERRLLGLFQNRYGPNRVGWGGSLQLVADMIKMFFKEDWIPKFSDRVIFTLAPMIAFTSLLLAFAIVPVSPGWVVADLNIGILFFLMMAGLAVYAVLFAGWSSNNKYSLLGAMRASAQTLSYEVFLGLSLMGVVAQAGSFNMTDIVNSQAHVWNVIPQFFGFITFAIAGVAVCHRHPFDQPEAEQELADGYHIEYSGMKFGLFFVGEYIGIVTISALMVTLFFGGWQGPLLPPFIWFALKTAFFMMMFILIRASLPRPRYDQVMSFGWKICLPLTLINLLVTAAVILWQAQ
Sequence (P0AFC7 whole entry partner): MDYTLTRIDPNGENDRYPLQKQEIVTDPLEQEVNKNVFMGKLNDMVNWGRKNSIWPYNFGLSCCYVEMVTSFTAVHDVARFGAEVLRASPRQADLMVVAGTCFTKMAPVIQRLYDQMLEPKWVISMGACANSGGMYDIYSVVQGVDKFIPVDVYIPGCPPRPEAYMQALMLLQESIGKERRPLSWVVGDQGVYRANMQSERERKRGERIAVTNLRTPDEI
Test: Inhibition of dNADH oxidase activity, NuoD mutant E308D
Conditions: app IC50, 50% inhibition of the dNADH oxidase activity
OBSERVATION_TYPE: IC50

Q: // query IC50 value for entry `CCCCCCCCCCCC[C@H](O)[C@H]1CC[C@H]([C@H]2CC[C@H]([C@H](O)CCCCCCCC[C@@H](O)CC3=C[C@H](C)OC3=O)O2)O1`
Ans: 2 nM

* * *

Target: E. coli NDH-1 NuoD mutant G225A (Escherichia coli, UniProt P0AFD4+P33599, G225A)
Sequence (P33599 whole entry G225A, one chain of several): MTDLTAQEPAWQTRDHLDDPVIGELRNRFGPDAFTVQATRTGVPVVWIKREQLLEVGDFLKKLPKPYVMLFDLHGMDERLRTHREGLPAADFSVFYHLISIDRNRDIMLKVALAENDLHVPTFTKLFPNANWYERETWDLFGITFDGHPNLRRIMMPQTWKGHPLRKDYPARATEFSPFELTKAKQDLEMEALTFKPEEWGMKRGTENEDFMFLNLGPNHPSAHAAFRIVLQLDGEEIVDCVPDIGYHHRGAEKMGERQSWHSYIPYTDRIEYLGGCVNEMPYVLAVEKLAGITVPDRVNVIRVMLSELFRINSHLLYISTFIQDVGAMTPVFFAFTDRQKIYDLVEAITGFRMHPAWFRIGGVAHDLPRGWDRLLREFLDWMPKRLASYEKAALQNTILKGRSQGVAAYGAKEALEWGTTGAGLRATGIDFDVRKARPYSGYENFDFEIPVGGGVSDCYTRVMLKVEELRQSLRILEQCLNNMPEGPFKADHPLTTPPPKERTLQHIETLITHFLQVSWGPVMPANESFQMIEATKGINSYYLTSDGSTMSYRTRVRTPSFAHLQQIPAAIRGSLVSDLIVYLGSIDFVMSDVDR
Assay: Inhibition of dNADH oxidase activity, NuoD mutant G225A
OBSERVATION_TYPE: pIC50
Notebook: values listed as pIC50 are -log10 of the concentration (mol/L).

Q: For the compound `CCCCCCCCCCCC[C@H](O)[C@H]1CC[C@H]([C@H]2CC[C@H]([C@H](O)CCCCCCCC[C@@H](O)CC3=C[C@H](C)OC3=O)O2)O1` , what pIC50 is on record?
Ans: 8.30
